Value source: patent US20250188176A1

- experimental_target: T1, Extracellular domain (ECD) of the canine IL-4 receptor alpha-AviTag-His Tag (canine)
- T1 construct: expressed in CHO cells; also called canine IL-4RA; canine IL4Ra
- T1 chain: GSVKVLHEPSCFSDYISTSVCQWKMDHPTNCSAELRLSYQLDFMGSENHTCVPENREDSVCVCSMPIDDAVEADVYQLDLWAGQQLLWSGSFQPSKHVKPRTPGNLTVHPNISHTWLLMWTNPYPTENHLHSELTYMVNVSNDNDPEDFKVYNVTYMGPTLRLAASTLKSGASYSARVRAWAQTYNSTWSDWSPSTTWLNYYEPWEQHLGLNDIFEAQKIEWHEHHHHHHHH
- assay_remarks: SPR, IgG captured via anti-dog Fc
value_type: kon (M⁻¹ s⁻¹)

binder="Fjmix_PS-H + 21188-L (antibody, V domains shown) VH: EVQLVESGGDLVKPGGSLRLSCVASGFPFRDYAMDWVRQAPGKGLQWLSLISGSGGKTYYADAVKGRFTISRDNAKNTLYLQMNSLRAEDTAVYYCAVDRLTKTIRPQYYGLWSWGQGTLVTVSS VL: DIVMTQTPLSLSVSPGETASISCRSSQSLTYSIGYNYLDWYMQKPGQSPQGLIYLGSKRASGVSDRFSGSGSGADFTLKISRVEADDAGVYYCMQGLQSPLGFGQGTKLEIKR" experimental_value=235000
binder="Gfmix_PTH-H + 21188-L (antibody, V domains shown) VH: EVQLVESGGDLVKPGGSLRLSCVASGFPFRDYAMTWVRQAPGKGLQWLSLISGSGGKTYYADAVKGRFTISRDNAKNTLYLQMNSLRAEDTAVYYCAVDRLTKTIRPQYYGLWHWGQGTLVTVSS VL: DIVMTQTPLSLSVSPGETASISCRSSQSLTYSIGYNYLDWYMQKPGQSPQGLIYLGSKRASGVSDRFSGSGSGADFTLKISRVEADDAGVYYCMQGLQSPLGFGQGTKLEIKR" experimental_value=255000
binder="FJP07H09-H + 21188-L (antibody, V domains shown) VH: EVQLVESGGDLVKPGGSLRLSCVASGFTFRDYAMDWVRQAPGKGLQWLSLISGSGGKTYYADAVKGRFTISRDNAKNTLYLQMNSLRAEDTAVYYCAVDRLTKTIRPQYYGLWSWGQGTLVTVSS VL: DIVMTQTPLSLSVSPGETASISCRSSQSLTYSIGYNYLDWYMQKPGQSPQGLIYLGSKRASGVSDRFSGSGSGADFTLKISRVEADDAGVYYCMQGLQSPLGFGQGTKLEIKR" experimental_value=236000
